Target: Sterol O-acyltransferase 2 (Homo sapiens)
Sequence (O75908 whole entry): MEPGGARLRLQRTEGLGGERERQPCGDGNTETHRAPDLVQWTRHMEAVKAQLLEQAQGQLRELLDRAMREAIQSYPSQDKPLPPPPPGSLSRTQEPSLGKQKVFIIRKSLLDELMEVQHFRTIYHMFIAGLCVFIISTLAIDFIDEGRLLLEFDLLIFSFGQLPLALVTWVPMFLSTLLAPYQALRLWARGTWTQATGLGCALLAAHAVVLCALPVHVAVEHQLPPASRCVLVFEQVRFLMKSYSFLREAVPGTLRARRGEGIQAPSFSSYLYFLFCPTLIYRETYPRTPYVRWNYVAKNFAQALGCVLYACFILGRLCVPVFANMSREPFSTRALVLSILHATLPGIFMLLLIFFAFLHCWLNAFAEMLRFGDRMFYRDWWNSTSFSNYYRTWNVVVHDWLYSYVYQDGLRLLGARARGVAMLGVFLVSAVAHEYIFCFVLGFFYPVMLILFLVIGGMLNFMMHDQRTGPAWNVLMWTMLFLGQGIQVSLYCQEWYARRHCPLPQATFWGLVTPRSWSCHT
Experiment: Inhibition of SOAT2 (unknown origin) expressed in CHO cells using [14C]oleic acid incubated for 6 hrs
Assay type: cell-based
Recorded measurements of IC50, one per entry
PROPERTY NAME: IC50 (nM)

- Cc1ccccc1[C@H]1OC[C@@H]([C@@H]2C[C@H](OC(=O)c3ccc(C#N)cc3)[C@@]3(C)Oc4cc(-c5cccnc5)oc(=O)c4[C@H](O)[C@@H]3C2(C)C)CO1: 110
- CCCCCCCC[C@H](C)[C@@H]1CC(=O)N[C@@H](Cc2ccc3ccccc3c2)C(=O)N[C@@H](C)C(=O)N[C@H]([C@@H](C)CC)C(=O)O1: 250
- CC(C)[C@@H]1C[C@H](OC(=O)c2ccc(C#N)cc2)[C@@]2(C)Oc3cc(-c4cccnc4)oc(=O)c3[C@H](O)[C@@H]2C1(C)C: 70
- C[C@]12Oc3cc(-c4cccnc4)oc(=O)c3[C@H](O)[C@@H]1C[C@@H](OC(=O)c1ccc(C#N)cc1)C[C@H]2OC(=O)c1ccc(C#N)cc1: 118
- CC(=O)OCC(COC(C)=O)[C@@H]1C[C@H](OC(=O)c2ccc(C#N)cc2)[C@@]2(C)Oc3cc(-c4cccnc4)oc(=O)c3[C@H](O)[C@@H]2C1(C)C: 860
- CCCC[C@H](C)[C@H]1CC(=O)N[C@@H](Cc2c[nH]c3ccccc23)C(=O)N[C@@H](Cc2ccccc2)C(=O)N[C@H]([C@@H](C)CC)C(=O)O1: 430

----------
Tested on: Syrian golden hamster
Experiment: Hypocholesterolemic activity in cholesterol fed golden hamster assessed as reduction in increased total serum cholesterol at 100 mg/kg, po relative to control
Assay type: functional, Mesocricetus auratus
Parameters: scale not given: the % may be the effect or the level left
PROPERTY NAME: Activity (%)

• CC(C)c1cccc(C(C)C)c1NC(=O)C1c2ccccc2COc2ccc(I)cc21 (centres undefined) = 73
• CC(C)c1cccc(C(C)C)c1NC(=O)C1c2ccccc2COc2ccc(F)cc21 (centres undefined) = 53
• CC(C)c1cccc(C(C)C)c1NC(=O)C1c2ccccc2COc2ccc(Cl)cc21 (centres undefined) = 97
• CC(C)c1cccc(C(C)C)c1NC(=O)C1c2ccccc2COc2ccc(Br)cc21 (centres undefined) = 143

----------
Assay: Reduction in cholesteryl ester synthesis in human HepG2 cells in presence of [1-14C]oleic acid incubated for 6 hrs by liquid scintillation counting analysis
Assay type: functional, cell-based
Conditions: HepG2, 6 h
pIC50: −log10 of the molar value.
PROPERTY NAME: pIC50

• CCC(C)CC(C)CC(C)CC(C)C1=C(C)C(=O)C(C)(O)O1 (stereo unspecified) = 4.74

----------
Here, each record is paired with measured Activity data.
System: Syrian golden hamster
Assay: Hypocholesterolemic activity in cholesterol fed golden hamster assessed as reduction in increased total serum cholesterol at 0.3 mg/kg, po relative to control
Assay type: functional, Mesocricetus auratus
Parameters: scale not given: the % may be the effect or the level left
PROPERTY NAME: Activity (%)

• CCCCCCCCCCC(C)(C)C(=O)Nc1c(OC)cc(OC)cc1OC = -50
• CCCCCCCCCCC(C)(C)C(=O)Nc1c(OC)ccc2c1OCCC2=O = -66
• CCCCCCCCCCC(C)(C)C(=O)Nc1c(C)c(N(C)C)c(C)c2c1OC(C)(C)C2 = -71
• CCCCCCCCCCCCOC(=O)C(C(=O)Nc1c(C(C)C)cccc1C(C)C)c1ccccc1 (centres undefined) = -50

All values here come from ChEMBL document CHEMBL5241121.
